assay: recombinant UMI read abundance after kanamycin selection (control-corrected) (log10(CPM+1)); higher = more efficient recombination; extreme values may be limits of the assay; sequences stand for … in AGTGCAGAGAAAATCGGCCAGTTTTCTCTGCCTGCAGTCCGCATGCCGTGGGACCCCTTGGGTTCTAACCTGTTGCCTAGATTTATGCAGCGGACTGCCTTTCTCCCAAAGTGATAAACCGG…AGGTTGGTTTCACT; site = the 11-nt donor;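 also: IS621 bridge recombinase in Escherichia coli cells against a fixed T5 target plasmid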
recombinant UMI read abundance (log10) vs 0.6: at or above is YES, below is NO.

Ask: Test whether the sequence TGTAGGTCATGGACCGGTTTTCCCGGTAATCCGTATTTGGT (site TGTAGGTCTAC) records recombinant UMI read abundance (log10) of 0.6 or higher.
Result: NO

Ask: Dear colleague, could you confirm whether TTCGTATCATGGACCGGTTTTCCCGGTAATCCGTATTTGAC (site TTCGTATCTGT) has recombinant UMI read abundance (log10) at or above 0.6?
Result: NO

Ask: Has GTTGTATCATGGACCGGTTTTCCCGGTAATCCGTATTTGAC (site CTAGTATCTGT) a recorded recombinant UMI read abundance (log10) greater than or equal to 0.6?
Result: YES

Ask: Is the recorded value of recombinant UMI read abundance (log10) equal to or greater than 0.6 for this sequence? CTCCCTGCATGGACCGGTTTTCCCGGTAATCCGTATTTGAG (site CTCCCTCCTCT)
Result: NO

Ask: Would you say TGCTATGCATGGACCGGTTTTCCCGGTAATCCGTATTTGGT (site TGCTATGCTAC) shows recombinant UMI read abundance (log10) at minimum 0.6?
Result: NO

Ask: Decide: is the reported value of recombinant UMI read abundance (log10) for CGCAATCCATGGACCGGTTTTCCCGGTAATCCGTATTTGAA (site CGCAATCCTTT) equal to or greater than 0.6?
Result: YES

Ask: Quick check: does TAGCGGTCATGGACCGGTTTTCCCGGTAATCCGTATTTGTT (site TAGCGGTCTAA) have recombinant UMI read abundance (log10) greater than or equal to 0.6?
Result: YES

Ask: Quick check, recombinant UMI read abundance (log10) >= 0.6? TGCTATGCATGGACCGGTTTTCCCGGTAATCCGTATTTGGT (site TGCTAGGCTAC)
Result: NO
